biological target: T1, human FLT3 protein (human, UniProt P36888 27-541, limits assumed); test: colorimetric ELISA, signal over control wells lacking FLT3
T1 construct: protein coated in the screening ELISA; also called ELISA FLT3
QUANTITY NAME: FLT3/control (ratio)

P. FLL32 (VHH, llama anti-FLT3 variable domain; E. coli periplasmic extract) VHH: QVQLQESGGGLVQAGGSLRLSCQASGVTFNINYIDWYRQAPGRQREWVAQITRDSTRFYADSVKGRFAISRDNAKNMVYLQLNSLKPEDTAVYYCRILSYWGQGTQVTVSS
Q. FLL77 (VHH, llama anti-FLT3 variable domain; E. coli periplasmic extract) VHH: QVQLQESGGGLVQPGGSLRLSCAASGVTFSISYIDWYRQAPGNEREWVAQITRGGDSFYADSVKGRFAISRDNAKNTVYLQMNSLKPEDTAVYYCRILSYWGQGTQVTVSS
Sort P and Q by FLT3/control descending and give the first. // caller expects the label of the chosen entry
Q
